Give measured Kd for each item. Keep answers brief.
Target: C-terminal SH2 domain of PI3K regulatory subunit 1 (UniProt P27986 614-724)
Sequence (P27986 614-724): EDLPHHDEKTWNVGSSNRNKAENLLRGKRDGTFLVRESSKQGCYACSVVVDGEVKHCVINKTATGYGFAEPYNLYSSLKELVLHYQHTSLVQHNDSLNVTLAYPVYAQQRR
Experiment: FP
Square brackets hold non-standard residues; d marks the D form. Ends that are not written are not given here. pY = N[C@@H](Cc1ccc(OP(=O)(O)O)cc1)C(=O)O
One number for each entry, in nM.

[[record]]
binder = "GRKGSGDYMPMSPKSK (not fully specified; phosphotyrosine at position 8 of the peptide (tyrosine residue 632 of human IRS1); lys-carboxyfluorescein (K-FITC) at the C-terminal end) [fluorescently labelled phospho-para-tyrosine IRS-1 peptide GRKGSGD(pY)MPMSPKS(K-FITC)]"
numeric_result = 18.6


Now take the following binder into account.
Specify measured Kd for GRKGSGD[pY]MPMSPKV-NH2 [phospho-para-Tyr IRS-1 peptide GRKGSGD(pY)MPMSPKV] . 2.1
